Data origin, for the record: patent EP0557345B1

- measurement protocol: Plasma kinetics after intravenous administration in rats
- Format: in vivo
- cond: rat, iv, 200 mgI/kg, read-out: half life for the distribution phase

| molecule | half-life / min |
| --- | --- |
| C[C@H](O)C(=O)Nc1c(I)c(C(=O)NCC(O)CNC(=O)c2c(I)c(NC(=O)[C@H](C)O)c(I)c(C(=O)NC(CO)CO)c2I)c(I)c(C(=O)NC(CO)CO)c1I [Example 1] | 2.9 |

###

- measurement protocol: Plasma kinetics after intravenous administration in rats
- Assay type: in vivo
- cond: rat, 200 mgI/kg, read-out: total clearance
- Method: The apparent volume of distribution is 123.5 ml/kg showing that the product is distributed in plasma and the extracellular spaces.
reported property: clearance (mL/min/kg)

| smiles entry | reported property | unit of measurement | recorded number |
| --- | --- | --- | --- |
| C[C@H](O)C(=O)Nc1c(I)c(C(=O)NCC(O)CNC(=O)c2c(I)c(NC(=O)[C@H](C)O)c(I)c(C(=O)NC(CO)CO)c2I)c(I)c(C(=O)NC(CO)CO)c1I | clearance | mL/min/kg | 7.9 |

###

- measurement protocol: Plasma kinetics after intravenous administration in rats
- Type: in vivo
- cond: rat, 200 mgI/kg, read-out: apparent volume of distribution

| smiles entry | Vd / L/kg |
| --- | --- |
| C[C@H](O)C(=O)Nc1c(I)c(C(=O)NCC(O)CNC(=O)c2c(I)c(NC(=O)[C@H](C)O)c(I)c(C(=O)NC(CO)CO)c2I)c(I)c(C(=O)NC(CO)CO)c1I | 0.123 |
